For reference, Ki measured on Coagulation factor X (Homo sapiens):
Give just the number in nM; leave the unit off.

Look over these answered cases.
- molecule: "CS(=O)(=O)c1ccccc1C1=CCC(NC(=O)c2cc(C(F)(F)F)nn2-c2cccc(CN)c2)CC1 (stereo not drawn)"
  system tested: "Coagulation factor X (Homo sapiens)"
  unit info: "nM"
  Ki: 3
- molecule: "CS(=O)(=O)c1ccccc1[C@H]1CC[C@H](NC(=O)c2cc(C(F)(F)F)nn2-c2cccc(CN)c2)CC1"
  system tested: "Coagulation factor X (Homo sapiens)"
  unit info: "nM"
  Ki: 5.7
- molecule: "COc1ccc(-n2nc(C(N)=O)c3c2C(=O)N(C2CCN(c4ccccc4CN4CCOCC4)CC2)CC3)cc1"
  system tested: "Coagulation factor X (Homo sapiens)"
  unit info: "nM"
  Ki: 0.57
- molecule: "COc1ccc(-n2nc(C(N)=O)c3c2C(=O)N(C2CCN(c4ccccc4CN(C)C(C)=O)CC2)CC3)cc1"
  system tested: "Coagulation factor X (Homo sapiens)"
  unit info: "nM"
  Ki: 23
- molecule: "CS(=O)(=O)c1ccccc1[C@H]1CC[C@@H](NC(=O)c2cc(C(F)(F)F)nn2-c2cccc(CN)c2)CC1"
  system tested: "Coagulation factor X (Homo sapiens)"
  unit info: "nM"
  Ki: 2000
- molecule: "COc1ccc(-n2nc(C(N)=O)c3c2C(=O)N(C2CCN(c4ccccc4S(C)(=O)=O)CC2)CC3)cc1"
  system tested: "Coagulation factor X (Homo sapiens)"
  unit info: "nM"
  Ki: 0.35
- molecule: "CS(=O)(=O)c1ccccc1N1CCC(NC(=O)c2cc(C(F)(F)F)nn2-c2cccc(CN)c2)CC1"
  system tested: "Coagulation factor X (Homo sapiens)"
  unit info: "nM"
  Ki: 4.9

Would you kindly look at the next entry?
// output Ki; input COc1ccc(-n2nc(C(F)(F)F)cc2C(=O)NC2CCN(c3ccccc3CN3CCOCC3)CC2)cc1 ; system Coagulation factor X (Homo sapiens) 6.6
